Measured values drawn from ChEMBL document CHEMBL5291721 for this set.

Catalogue of AC50 readings, one per entry.
tgt: UniProt:P18825
Sequence (P18825 whole entry): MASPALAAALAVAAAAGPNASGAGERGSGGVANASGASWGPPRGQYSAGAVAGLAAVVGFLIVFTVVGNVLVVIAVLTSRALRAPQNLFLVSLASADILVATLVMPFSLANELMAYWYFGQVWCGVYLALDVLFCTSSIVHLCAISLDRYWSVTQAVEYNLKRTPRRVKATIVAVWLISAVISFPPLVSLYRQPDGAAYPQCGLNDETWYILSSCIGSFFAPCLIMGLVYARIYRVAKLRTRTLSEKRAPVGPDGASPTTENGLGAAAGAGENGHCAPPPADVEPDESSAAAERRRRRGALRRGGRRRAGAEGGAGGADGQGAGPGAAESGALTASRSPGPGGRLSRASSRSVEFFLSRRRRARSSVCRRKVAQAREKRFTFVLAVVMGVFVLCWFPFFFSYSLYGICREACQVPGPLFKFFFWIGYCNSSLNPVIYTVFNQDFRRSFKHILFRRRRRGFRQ
Format: functional

molecule	AC50
CC1(C)S[C@@H]2[C@H](NC(=O)[C@H](N)c3ccccc3)C(=O)N2[C@H]1C(=O)OCOC(=O)[C@@H]1N2C(=O)C[C@H]2S(=O)(=O)C1(C)C	> 30 µM
CCN(CC)CCN1C(=O)CN=C(c2ccccc2F)c2cc(Cl)ccc21	> 10 µM
CC(C)Cc1ccc(C(C)C(=O)O)cc1 (centres undefined)	> 10 µM

Recorded AC50 (molecule `Nc1ncn([C@H]2C[C@H](O)[C@@H](CO)O2)c(=O)n1` ): > 30 µM

// CC(C(=O)O)c1ccc2c(c1)[nH]c1ccc(Cl)cc12 (centres undefined) : AC50 value = > 10 µM

CC(N)C(O)c1ccccc1 (centres undefined) yielded AC50 of 7.3 µM

Lab note: measured AC50 of O=C1C(CC[S+]([O-])c2ccccc2)C(=O)N(c2ccccc2)N1c1ccccc1 (centres undefined) was > 10 µM

For record CC(S)C(=O)NCC(=O)O (centres undefined) the listed AC50 is > 30 µM

For `CCC[C@H](NC(=O)[C@@H]1[C@H]2CCC[C@H]2CN1C(=O)[C@@H](NC(=O)[C@@H](NC(=O)c1cnccn1)C1CCCCC1)C(C)(C)C)C(=O)C(=O)NC1CC1` the molecule record lists AC50 as > 10 µM
